Record form. Attribute: Stability in Powder Concentrate (content by LCMSMS). Fill in for each entry.
- Assay type: physicochemical
- measurement_parameters: stored at room temperature (21-25° C.), day 390
Write it as a number; the unit mg/g powder goes unstated.

IN: Return value of Stability in Powder Concentrate (content by LCMSMS) for input C=C(C)[C@@H]1CCC(C)=C[C@H]1c1c(O)cc(CCC)cc1O , no commentary.
OUT: 0.049

IN: Provide measured Stability in Powder Concentrate (content by LCMSMS) value, entry: CCCCCc1cc(O)c2c(c1)OC1(C)CCC3C1C2C3(C)C (stereo not shown)
OUT: 0.052

IN: Give the reported value of Stability in Powder Concentrate (content by LCMSMS) for this record: CCCCCc1cc(O)c(C/C=C(\C)CCC=C(C)C)c(O)c1
OUT: 1.14

IN: For C=C(C)[C@@H]1CCC(C)=C[C@H]1c1c(O)cc(CCCCC)cc1O [CBD, cannabidiol, reference compound] , write its Stability in Powder Concentrate (content by LCMSMS).
OUT: 5.93

IN: Give the reported value of Stability in Powder Concentrate (content by LCMSMS) for this record: CCCCCc1cc2c(c(O)c1C(=O)O)[C@@H]1C=C(C)CC[C@H]1C(C)(C)O2 [D9 THCA, delta-9-tetrahydrocannabinolic acid]
OUT: 0.153

IN: Input C=C(C)[C@@H]1CCC(C)=C[C@H]1c1c(O)cc(CCCCC)c(C(=O)O)c1O , output reported Stability in Powder Concentrate (content by LCMSMS).
OUT: 0.407

IN: Please report Stability in Powder Concentrate (content by LCMSMS) for the following compound: CCCc1cc(O)c2c(c1)OC(C)(C)[C@@H]1CCC(C)=C[C@@H]21 [THCV, delta-9-tetrahydrocannabivarin]
OUT: 0.680

Sourced from patent US20240415914A1
